System: J6/JFH chimeric HCV reporter virus (J6/JFH-Rluc2a-FLAG)
Assay: Antiviral assay with HCVcc virus in Huh-Lunet cells
Assay type: cell-based, HCV genotype 2a
Details: Hepatitis C virus, 72 h, read-out: Anti-HCV activity EC50, J6/JFH
pEC50: −log10 of the molar value.
observable: pEC50

* CCC[C@H](NC(=O)[C@@H]1[C@H]2CCC[C@H]2CN1C(=O)[C@@H](NC(=O)[C@@H](NC(=O)c1cnccn1)C1CCCCC1)C(C)(C)C)C(=O)C(=O)NC1CC1 [VX-950] | 6.54
* C[C@@]1(O)[C@H](O)[C@@H](CO)O[C@H]1n1ccc(N)nc1=O [2′-C-MeCyt, 2′-C-Methylcytidine] | 7.00
* Fc1cccc(-c2nc3ccn(Cc4cc(-c5ccc(Cl)cc5)no4)cc-3n2)c1F [GS-327073] | 6.48
* CC(C)(C)NC(=O)N[C@H](C(=O)N1C[C@H]2[C@@H]([C@H]1C(=O)NC(CC1CCC1)C(=O)C(N)=O)C2(C)C)C(C)(C)C (some centres unmarked) [SCH 503034] | 6.47

* * *

Tested on: VX-950^res and BILN-2061^res replicon
Assay: Anti-HCV assay, VX-950 and BILN-2061 double resistant replicon
Conditions: Hepatitis C virus, read-out: EC50, VX-950^res and BILN-2061^res
observable: EC50 (µM)

* C[C@@]1(O)[C@H](O)[C@@H](CO)O[C@H]1n1ccc(N)nc1=O | 1
* CCC[C@H](NC(=O)[C@@H]1[C@H]2CCC[C@H]2CN1C(=O)[C@@H](NC(=O)[C@@H](NC(=O)c1cnccn1)C1CCCCC1)C(C)(C)C)C(=O)C(=O)NC1CC1 | 14
* COc1ccc2c(O[C@@H]3C[C@H]4C(=O)N[C@]5(C(=O)O)C[C@H]5/C=C\CCCCC[C@H](NC(=O)OC5CCCC5)C(=O)N4C3)cc(-c3csc(NC(C)C)n3)nc2c1 | 0.8

* * *

Tested on: HuH6 replicons
Test: Anti-HCV replicon assay in HuH6 cells
Details: Hepatitis C virus, HuH-6, read-out: Anti-HCV activity EC50, HuH6
observable: EC50 (nM)

- COc1ccc2c(O[C@@H]3C[C@H]4C(=O)N[C@]5(C(=O)O)C[C@H]5/C=C\CCCCC[C@H](NC(=O)OC5CCCC5)C(=O)N4C3)cc(-c3csc(NC(C)C)n3)nc2c1: 4
- CNC(=O)c1c(-c2ccc(F)cc2)oc2cc(N(CCO)S(C)(=O)=O)c(C3CC3)cc12: 10
- [N-]=[N+]=N[C@]1(CO)O[C@@H](n2ccc(N)nc2=O)[C@H](O)[C@@H]1O: 7400

* * *

System: HuH6 replicons
Experiment: Anti-HCV replicon assay in HuH6 cells
Details: Hepatitis C virus, HuH-6, read-out: Anti-HCV activity EC50, HuH6
observable: EC50 (nM)

* CCC[C@H](NC(=O)[C@@H]1[C@H]2CCC[C@H]2CN1C(=O)[C@@H](NC(=O)[C@@H](NC(=O)c1cnccn1)C1CCCCC1)C(C)(C)C)C(=O)C(=O)NC1CC1 | 1400
* Fc1cccc(-c2nc3ccn(Cc4cc(-c5ccc(Cl)cc5)no4)cc-3n2)c1F | 50
* C[C@@]1(O)[C@H](O)[C@@H](CO)O[C@H]1n1ccc(N)nc1=O | 1020
* NC(=O)c1ncn([C@@H]2O[C@H](CO)[C@@H](O)[C@H]2O)n1 | 28000
